Data provenance is patent US7964624B1.

Some compounds, each annotated with its measured Ki.
- experimental_system: full-length hepatitis C viral protein NS3•4A (Hepatitis C virus genotype 1a, UniProt P27958)
- Construct: hexa-histidine (N); made in house; host or cells: Sf9 insect cells (baculovirus, pVL1392)
- run_description: biochemical
- Set-up: species or system HCV sub-type strain 1a
- condition_notes: Enzyme Assay 2 (HCV NS3 Peptide Cleavage Assay) activity, apparent Ki class

Just so you know, measured Ki for CCC[C@H](NC(=O)[C@@H]1C[C@]2(CC(c3cc(Cl)c(OC)cc3OC)=NO2)CN1C(=O)[C@@H](NC(=O)CC1CCCCCC1)C(C)(C)C)C(=O)C(N)=O [Compound 656] came out at 100 to 500 nM

// recorded Ki for CCC[C@H](NC(=O)[C@@H]1C[C@]2(CC(c3cc(C)c(OCC4CC4)c(C)c3)=NO2)CN1C(=O)[C@@H](NC(=O)CC1CCCCC1)C(C)(C)C)C(=O)C(=O)NC1CC1 [Compound 406] : < 100 nM

# next compound below
Record CCC[C@H](NC(=O)[C@@H]1C[C@]2(CC(c3cccc(Cl)c3)=NO2)CN1C(=O)[C@@H](Nc1ccccc1)C(C)(C)C)C(=O)C(=O)NC1CC1 [Compound 172] , field Ki: 100 to 500 nM
